Parameter Average weight of mice: see the listing below.
Test system: ulcerative colitis model (dextran sodium sulphate)
Assay: Effect example 2: therapeutic effect on ulcerative colitis, dextran sodium sulphate model, oral gavage, 14 days
Format: in vivo, C57 mice
Settings: Day 4; treatment group 40 mg/kg oral gavage

Answered cases to consult:
{"chemical string": "COC(=O)[C@H]1O[C@@H](OC2=C(C)OC(=C(C)C)C2=O)[C@H](OC(C)=O)[C@@H](OC(C)=O)[C@@H]1OC(C)=O", "tested target": "ulcerative colitis model (dextran sodium sulphate)", "experimental readout": "Average weight of mice", "value": "26.9 g"}
{"chemical string": "CC(C)=C1OC(C)=C(O[C@@H]2O[C@H](COC(=O)C(C)(C)C)[C@@H](OC(=O)C(C)(C)C)[C@H](OC(=O)C(C)(C)C)[C@H]2OC(=O)C(C)(C)C)C1=O", "tested target": "ulcerative colitis model (dextran sodium sulphate)", "experimental readout": "Average weight of mice", "value": "26.9 g"}
{"chemical string": "CC(=O)OC[C@H]1O[C@@H](OC2=C(C)OC(=C(C)C)C2=O)[C@H](OC(C)=O)[C@@H](OC(C)=O)[C@H]1OC(C)=O", "tested target": "ulcerative colitis model (dextran sodium sulphate)", "experimental readout": "Average weight of mice", "value": "26.72 g"}

Task item: Returns the measured Average weight of mice for the input compound. Input: CC(=O)OC[C@H]1O[C@@H](OC2=C(C)OC(=C(C)C)C2=O)[C@H](OC(C)=O)[C@@H](OC(C)=O)[C@@H]1OC(C)=O
Reply: 26.86 g

----------
Test system: ulcerative colitis model (dextran sodium sulphate)
Assay: Effect example 2: therapeutic effect on ulcerative colitis, dextran sodium sulphate model, oral gavage, 14 days
Type: in vivo, C57 mice
Details: Day 10; treatment group 40 mg/kg oral gavage
Parameter Average weight of mice: see the listing below.
Write the number in g without appending the unit.

{"chemical string": "CC(C)=C1OC(C)=C(O[C@@H]2O[C@H](COC(=O)C(C)(C)C)[C@@H](OC(=O)C(C)(C)C)[C@H](OC(=O)C(C)(C)C)[C@H]2OC(=O)C(C)(C)C)C1=O", "Average weight of mice, g": 24.42}

Task item: Tell me reported Average weight of mice for COC(=O)[C@H]1O[C@@H](OC2=C(C)OC(=C(C)C)C2=O)[C@H](OC(C)=O)[C@@H](OC(C)=O)[C@@H]1OC(C)=O , tested with ulcerative colitis model (dextran sodium sulphate).
Reply: 23.24

Task item: Tell me reported Average weight of mice for CC(=O)OC[C@H]1O[C@@H](OC2=C(C)OC(=C(C)C)C2=O)[C@H](OC(C)=O)[C@@H](OC(C)=O)[C@H]1OC(C)=O , tested with ulcerative colitis model (dextran sodium sulphate).
Reply: 23.3

Task item: Tell me reported Average weight of mice for CC(=O)OC[C@H]1O[C@@H](OC2=C(C)OC(=C(C)C)C2=O)[C@H](OC(C)=O)[C@@H](OC(C)=O)[C@@H]1OC(C)=O , tested with ulcerative colitis model (dextran sodium sulphate).
Reply: 23.64

----------
Tested on: ulcerative colitis model (dextran sodium sulphate)
Assay: Effect example 2: therapeutic effect on ulcerative colitis, dextran sodium sulphate model, oral gavage, 14 days
Format: in vivo, C57 mice
Conditions: Day 8; treatment group 40 mg/kg oral gavage
experimental readout: Average weight of mice (g)
Write the number in g without appending the unit.

Answered cases to consult:
{"chemical string": "CC(=O)OC[C@H]1O[C@@H](OC2=C(C)OC(=C(C)C)C2=O)[C@H](OC(C)=O)[C@@H](OC(C)=O)[C@H]1OC(C)=O", "tested target": "ulcerative colitis model (dextran sodium sulphate)", "experimental readout": "Average weight of mice", "value": 23.44}
{"chemical string": "CC(=O)OC[C@H]1O[C@@H](OC2=C(C)OC(=C(C)C)C2=O)[C@H](OC(C)=O)[C@@H](OC(C)=O)[C@@H]1OC(C)=O", "tested target": "ulcerative colitis model (dextran sodium sulphate)", "experimental readout": "Average weight of mice", "value": 23.78}
{"chemical string": "CC(C)=C1OC(C)=C(O[C@@H]2O[C@H](COC(=O)C(C)(C)C)[C@@H](OC(=O)C(C)(C)C)[C@H](OC(=O)C(C)(C)C)[C@H]2OC(=O)C(C)(C)C)C1=O", "tested target": "ulcerative colitis model (dextran sodium sulphate)", "experimental readout": "Average weight of mice", "value": 24.38}

// switching to the query compound
Task item: Returns the measured Average weight of mice for the input compound. Input: COC(=O)[C@H]1O[C@@H](OC2=C(C)OC(=C(C)C)C2=O)[C@H](OC(C)=O)[C@@H](OC(C)=O)[C@@H]1OC(C)=O
Reply: 23.6

----------
System: ulcerative colitis model (dextran sodium sulphate)
Assay: Effect example 2: therapeutic effect on ulcerative colitis, dextran sodium sulphate model, oral gavage, 14 days
Format: in vivo, C57 mice
Settings: day 14; treatment group 40 mg/kg oral gavage
experimental readout: Average colon length of mice (cm)
Write the number in cm without appending the unit.

{"compound": "COC(=O)[C@H]1O[C@@H](OC2=C(C)OC(=C(C)C)C2=O)[C@H](OC(C)=O)[C@@H](OC(C)=O)[C@@H]1OC(C)=O [Compound I-5]", "experimental readout": "Average colon length of mice", "u": "cm", "value": 6.0}

Task item: Returns the measured Average colon length of mice for the input compound. Input: CC(C)=C1OC(C)=C(O[C@@H]2O[C@H](COC(=O)C(C)(C)C)[C@@H](OC(=O)C(C)(C)C)[C@H](OC(=O)C(C)(C)C)[C@H]2OC(=O)C(C)(C)C)C1=O [Compound I-6]
Reply: 5.9

Task item: Returns the measured Average colon length of mice for the input compound. Input: CC(=O)OC[C@H]1O[C@@H](OC2=C(C)OC(=C(C)C)C2=O)[C@H](OC(C)=O)[C@@H](OC(C)=O)[C@@H]1OC(C)=O [Compound I-2]
Reply: 6.2

Task item: Returns the measured Average colon length of mice for the input compound. Input: CC(=O)OC[C@H]1O[C@@H](OC2=C(C)OC(=C(C)C)C2=O)[C@H](OC(C)=O)[C@@H](OC(C)=O)[C@H]1OC(C)=O [Compound I-4]
Reply: 6.2

----------
Parameter Average weight of mice: see the listing below.
System: ulcerative colitis model (dextran sodium sulphate)
Assay: Effect Example 3: therapeutic effect on ulcerative colitis, dextran sodium sulphate model, oral gavage, 7 days
Type: in vivo, C57 mice
Details: Day 3; 40 mg/kg oral gavage
Write the number in g without appending the unit.

Answered cases to consult:
{"chemical string": "CCOC(=O)OC[C@H]1O[C@@H](OC2=C(C)OC(=C(C)C)C2=O)[C@H](O)[C@@H](O)[C@@H]1O", "Average weight of mice (g)": 21.18}
{"chemical string": "CC(=O)OC[C@H]1O[C@@H](OC2=C(C)OC(=C3CCNCC3)C2=O)[C@H](OC(C)=O)[C@@H](OC(C)=O)[C@@H]1OC(C)=O", "Average weight of mice (g)": 21.10}
{"chemical string": "CC(=O)OC[C@H]1O[C@@H](OC2=C(C)OC(=C3CCN(C(C)=O)CC3)C2=O)[C@H](OC(C)=O)[C@@H](OC(C)=O)[C@@H]1OC(C)=O", "Average weight of mice (g)": 21.13}

Task item: Tell me reported Average weight of mice for CC(C)=C1OC(C)=C(O[C@@H]2O[C@H](CO)[C@@H](O)[C@H](O)[C@H]2O)C1=O , tested with ulcerative colitis model (dextran sodium sulphate).
Reply: 20.80

Task item: Tell me reported Average weight of mice for CC(=O)OC[C@H]1O[C@@H](OC2=C(C)OC(=C(C)C)C2=O)[C@H](OC(C)=O)[C@@H](OC(C)=O)[C@@H]1OC(C)=O , tested with ulcerative colitis model (dextran sodium sulphate).
Reply: 21.25

Task item: Tell me reported Average weight of mice for CC(=O)OC[C@H]1O[C@@H](OC2=C(C)OC(=C3CCCC3)C2=O)[C@H](OC(C)=O)[C@@H](OC(C)=O)[C@@H]1OC(C)=O , tested with ulcerative colitis model (dextran sodium sulphate).
Reply: 21.77

Task item: Tell me reported Average weight of mice for CC(=O)OC[C@H]1O[C@@H](OC2=C(C)OC(=C3CCCCC3)C2=O)[C@H](OC(C)=O)[C@@H](OC(C)=O)[C@@H]1OC(C)=O , tested with ulcerative colitis model (dextran sodium sulphate).
Reply: 20.92

Task item: Tell me reported Average weight of mice for CC(=O)OC[C@H]1O[C@@H](OC2=C(C)OC(=C3CCOCC3)C2=O)[C@H](OC(C)=O)[C@@H](OC(C)=O)[C@@H]1OC(C)=O , tested with ulcerative colitis model (dextran sodium sulphate).
Reply: 21.18
